- procedure text: growth modulation of vineyard yeast isolate – strain RM11-1a, OD600, basal, 24 h, primary screen (AID 1177);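 note: cultures grown under basal conditions with no added stressor; test concentration not given here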
- study conditions: S. cerevisiae RM11-1a growth, OD600, 24 h; higher = more signal, called active from +8 up or from −8 down
Please note: Yes applies when z-score is 0.2 or greater, and No applies otherwise.

NC(=O)N1C(=O)C2C(C1=O)C1C=C(CCCO)C2C(C2CC2)N1Cc1cc2c(cc1Br)OCO2 (configuration not stated)	No
CCOC(=O)C1=CCC(c2ccc(F)cc2)N(S(=O)(=O)c2ccc(C)cc2)C1 (configuration not stated)	Yes
O=C1OCCC=C[C@H]2OC34C=CCN(c5ccc(Cl)cc5)C(=O)[C@H]3N(CCCO)C(=O)[C@@H]4C12 (some centres not stated)	No
COc1cc2c(cc1O)C(c1cccs1)N(Cc1cccc(OC(F)(F)F)c1)CC2 (configuration not stated)	No
C=CC[C@]1(C(N)=O)N=C(c2ccc(OCCCO)cc2)O[C@H]1c1ccccc1	No
COc1ccc(C(O)C2C=CC3C(=O)N(C)C(=O)C3N2N(c2ccccc2)c2ccccc2)c2ccccc12 (configuration not stated)	Yes
COc1ccc([Si](C)(C)[C@H]2[C@H](CCO)O[C@@]3(C(=O)N(Cc4ccccc4)c4ccc(N5CCCCC5=O)cc43)[C@@H]2C)cc1	Yes
COc1ccc([Si](C)(C)[C@H]2[C@H](CCn3cc([C@H](O)c4ccccc4)nn3)O[C@@]3(C(=O)N(C)c4ccccc43)[C@@H]2C)cc1	Yes
C=C(CCCC)/C(=C/C[C@@H](OC(C)=O)c1cccc(OCCO)c1)c1cnc2ccccc2c1	Yes
CCCC1(C(=O)OC)C=C2C(=C(c3ccccc3)C(=O)C2C)CN1 (configuration not stated)	No

Exercise: Does CCCCN1CC=CC23O[C@@H]4C=CCOC(=O)[C@@H]4[C@H]2C(=O)N(CCCCCCO)[C@@H]3C1=O (some centres not stated) have a reported z-score of at least 0.2?
Solution: No

---

- target under test: Fibroblast growth factor 10 (Homo sapiens) (UniProt O15520)
- Sequence (O15520 whole entry, looked up): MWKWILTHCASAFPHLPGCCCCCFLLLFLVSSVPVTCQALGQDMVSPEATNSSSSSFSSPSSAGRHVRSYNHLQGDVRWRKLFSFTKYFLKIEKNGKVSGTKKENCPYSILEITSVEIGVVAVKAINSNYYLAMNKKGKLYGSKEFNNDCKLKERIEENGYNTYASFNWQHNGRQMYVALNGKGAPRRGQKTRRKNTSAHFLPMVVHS
- procedure text: compounds binding fibroblast growth factor 10 – biochemical, small-molecule microarray, 635 nm fluorescence, primary screen (AID 1102)
- study conditions: FGF10 binding, fluorescence 635 nm, higher = more signal
measured attribute: composite z-score
Just the number.

The examples below pair each entry with its known result.
C#CCNCc1ccccc1	0.2
CCOC(=O)C1=CC[C@H]2C(=O)N(c3ccccc3)C(=O)[C@@H]12	1.19
C=CC[C@@]1(C(=O)N2CCCCC2)N=C(c2ccc(OCCCO)cc2)O[C@@H]1c1ccccc1CN=[N+]=[N-]	0.666

Exercise: # return composite z-score for "C=CCN1C(=O)[C@]2(O[C@H](CCO)[C@@H]([Si](C)(C)c3ccc(OC)cc3)[C@@H]2C)c2cc(N(C=O)c3ccccc3)ccc21" , test system: Fibroblast growth factor 10 (Homo sapiens) (UniProt O15520)
Solution: -0.0285

Exercise: State the measured composite z-score (Fibroblast growth factor 10 (Homo sapiens) (UniProt O15520)) of C=C(C)[C@@H]1CC=C(C(O)C2C=CC3C(=O)NC(=O)C3N2Nc2ccc(Cl)cc2Cl)CC1 (stereo partly specified)
Solution: 0.276

Exercise: # return composite z-score for "COCCOC(=O)N1C(=O)[C@@]2(c3cc(C#CCCO)ccc31)[C@H](c1ccc(OCCO)cc1)N1[C@H](c3ccccc3)[C@H](c3ccccc3)OC(=O)[C@H]1[C@@H]2C(N)=O" , test system: Fibroblast growth factor 10 (Homo sapiens) (UniProt O15520)
Solution: 0.874

Exercise: State recorded composite z-score with Fibroblast growth factor 10 (Homo sapiens) (UniProt O15520), entry O=C(O)C1N=C(c2ccc(OCCCO)cc2)N(c2ccccc2)O1 (stereo unspecified) , no comment.
Solution: 1.22

Exercise: // fetch composite z-score; item: COc1cc2c(cc1O)C(c1cccs1)N(Cc1cccc(OC(F)(F)F)c1)CC2 (stereo unspecified) ; system: Fibroblast growth factor 10 (Homo sapiens) (UniProt O15520)
Solution: -0.153

Exercise: // fetch composite z-score; item: "CC(C)[Si](C#CCCCC#N)(Oc1ccccc1Br)C(C)C" ; system: Fibroblast growth factor 10 (Homo sapiens) (UniProt O15520)
Solution: 0.361

Exercise: Recall the reported composite z-score of "COc1ccc(C#Cc2ccc3c(c2)[C@]2(C(=O)N3)[C@H](c3ccc(O)cc3)N3[C@H](c4ccccc4)[C@H](c4ccccc4)OC(=O)[C@H]3[C@@H]2C(=O)N2CCc3cc(OC)c(OC)cc3C2)cc1" on Fibroblast growth factor 10 (Homo sapiens) (UniProt O15520) and write it down.
Solution: 0.768
